This listing pairs sequences with measured shrunken log2 fold change.
tested on: Escherichia coli TOP10; experiment: shrunken log2 fold change of peptide-encoding DNA abundance (4.5 h post-induction vs induction); higher = less antimicrobial activity (less host growth inhibition); settings: time post-induction: 4.5 h; library: site-saturation at positions 5, 18, 19, 20

BIOSEQUENCE	shrunken log2 fold change
RRIRERPPRLPRPRPRPNFYPRP	-0.261
RRIRRRPPRLPRPRPRPVCFPRP	0.383
RRIRLRPPRLPRPRPRPGEQPRP	0.0657
RRIRLRPPRLPRPRPRPTFSPRP	-0.0485
RRIRGRPPRLPRPRPRPADNPRP	-0.0713
RRIRQRPPRLPRPRPRPKYMPRP	-0.386
RRIRVRPPRLPRPRPRPSDHPRP	-0.0923
RRIRCRPPRLPRPRPRPPKNPRP	0.5
RRIRYRPPRLPRPRPRPFTSPRP	-0.0993
RRIRARPPRLPRPRPRPHEIPRP	-0.107
RRIRDRPPRLPRPRPRPPEKPRP	0.106
RRIRHRPPRLPRPRPRPVTWPRP	-0.268
RRIRFRPPRLPRPRPRPRGAPRP	0.493
RRIRVRPPRLPRPRPRPIISPRP	-0.418
RRIRQRPPRLPRPRPRPFNGPRP	-0.3

====

tested on: Escherichia coli TOP10; assay: shrunken log2 fold change of peptide-encoding DNA abundance (4.5 h post-induction vs induction); higher = less antimicrobial activity (less host growth inhibition); settings: time post-induction: 4.5 h; library: site-saturation at positions 5, 18, 19, 20
Classify by measured shrunken log2 fold change: Met if it is equal to or exceeds -0.06, Not met if it is smaller.

BIOSEQUENCE	CATEGORY
RRIRCRPPRLPRPRPRPLLKPRP	Not met
RRIRYRPPRLPRPRPRPLPVPRP	Not met
RRIRFRPPRLPRPRPRPVCPPRP	Met
RRIRCRPPRLPRPRPRPPYAPRP	Met
RRIRSRPPRLPRPRPRPPTYPRP	Not met
RRIRKRPPRLPRPRPRPERDPRP	Met
RRIRVRPPRLPRPRPRPEAWPRP	Met
RRIRKRPPRLPRPRPRPCKFPRP	Met
RRIRQRPPRLPRPRPRPNFRPRP	Met
RRIRRRPPRLPRPRPRPLCFPRP	Met
RRIRSRPPRLPRPRPRPRRGPRP	Met
RRIRVRPPRLPRPRPRPKNHPRP	Not met
RRIRIRPPRLPRPRPRPMTKPRP	Met
RRIRPRPPRLPRPRPRPFGKPRP	Not met
RRIRFRPPRLPRPRPRPKIPPRP	Not met
RRIRFRPPRLPRPRPRPIFVPRP	Met
RRIRWRPPRLPRPRPRPAQHPRP	Met
RRIRYRPPRLPRPRPRPPHQPRP	Met
RRIRPRPPRLPRPRPRPMQLPRP	Met
RRIRRRPPRLPRPRPRPNNTPRP	Met
RRIRDRPPRLPRPRPRPTDIPRP	Not met
RRIRCRPPRLPRPRPRPGMAPRP	Met
RRIRGRPPRLPRPRPRPQCFPRP	Met
RRIRQRPPRLPRPRPRPEHIPRP	Met
RRIRARPPRLPRPRPRPYSRPRP	Met
RRIRARPPRLPRPRPRPELIPRP	Met
RRIRVRPPRLPRPRPRPHKVPRP	Not met
RRIRPRPPRLPRPRPRPPSKPRP	Met
RRIRKRPPRLPRPRPRPLVTPRP	Met
RRIRIRPPRLPRPRPRPRIIPRP	Not met
RRIRMRPPRLPRPRPRPCHGPRP	Met
RRIRERPPRLPRPRPRPPWCPRP	Met
RRIRQRPPRLPRPRPRPYMEPRP	Not met
RRIRRRPPRLPRPRPRPPFGPRP	Met
RRIRARPPRLPRPRPRPTGIPRP	Met
RRIRIRPPRLPRPRPRPMNNPRP	Not met
RRIRARPPRLPRPRPRPMDMPRP	Not met
RRIRRRPPRLPRPRPRPFNYPRP	Not met
RRIRYRPPRLPRPRPRPTLTPRP	Met
RRIRLRPPRLPRPRPRPAMEPRP	Met
RRIRHRPPRLPRPRPRPFRVPRP	Not met
RRIRERPPRLPRPRPRPEYCPRP	Met
RRIRMRPPRLPRPRPRPGACPRP	Met
RRIRKRPPRLPRPRPRPAQAPRP	Met
RRIRWRPPRLPRPRPRPFSKPRP	Met
RRIRMRPPRLPRPRPRPCVEPRP	Met
RRIRCRPPRLPRPRPRPKQKPRP	Met
RRIRQRPPRLPRPRPRPPLAPRP	Met
RRIRYRPPRLPRPRPRPWWTPRP	Not met
RRIRERPPRLPRPRPRPPKEPRP	Met
RRIRWRPPRLPRPRPRPLNMPRP	Not met
RRIRPRPPRLPRPRPRPFKGPRP	Not met
RRIRRRPPRLPRPRPRPLRRPRP	Met
RRIRHRPPRLPRPRPRPWHCPRP	Met
RRIRGRPPRLPRPRPRPKWDPRP	Met
RRIRNRPPRLPRPRPRPKACPRP	Met
RRIRRRPPRLPRPRPRPVVQPRP	Met
RRIRDRPPRLPRPRPRPWRIPRP	Not met
RRIRHRPPRLPRPRPRPGSQPRP	Met
RRIRSRPPRLPRPRPRPYWPPRP	Not met
RRIRWRPPRLPRPRPRPIQLPRP	Not met
RRIRARPPRLPRPRPRPFVVPRP	Not met

====

system: Escherichia coli TOP10; experiment: shrunken log2 fold change of peptide-encoding DNA abundance (4.5 h post-induction vs induction); higher = less antimicrobial activity (less host growth inhibition); details: time post-induction: 4.5 h; library: site-saturation at positions 5, 18, 19, 20
Classify by measured shrunken log2 fold change: Met if it is equal to or exceeds -0.1, Not met if it is smaller.

BIOSEQUENCE	TARGET OR TEST SYSTEM	CATEGORY
RRIRERPPRLPRPRPRPYHIPRP	Escherichia coli TOP10	Not met
RRIRDRPPRLPRPRPRPSMAPRP	Escherichia coli TOP10	Met
RRIRMRPPRLPRPRPRPNWWPRP	Escherichia coli TOP10	Met
RRIRIRPPRLPRPRPRPLKMPRP	Escherichia coli TOP10	Not met
RRIRLRPPRLPRPRPRPMMGPRP	Escherichia coli TOP10	Met
RRIRHRPPRLPRPRPRPTDIPRP	Escherichia coli TOP10	Not met
RRIRDRPPRLPRPRPRPLEGPRP	Escherichia coli TOP10	Met
RRIRSRPPRLPRPRPRPNYHPRP	Escherichia coli TOP10	Not met
RRIRPRPPRLPRPRPRPSPCPRP	Escherichia coli TOP10	Met
RRIRCRPPRLPRPRPRPQDMPRP	Escherichia coli TOP10	Met
RRIRVRPPRLPRPRPRPYEPPRP	Escherichia coli TOP10	Not met
RRIRKRPPRLPRPRPRPSAMPRP	Escherichia coli TOP10	Met
RRIRQRPPRLPRPRPRPGYMPRP	Escherichia coli TOP10	Not met
RRIRPRPPRLPRPRPRPCQAPRP	Escherichia coli TOP10	Met
RRIRKRPPRLPRPRPRPTREPRP	Escherichia coli TOP10	Met

====

tested on: Escherichia coli TOP10; assay: shrunken log2 fold change of peptide-encoding DNA abundance (4.5 h post-induction vs induction); higher = less antimicrobial activity (less host growth inhibition); details: time post-induction: 4.5 h; library: site-saturation at positions 5, 18, 19, 20;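 further: peptides expressed intracellularly from a pBAD plasmid library in pooled LB shake-flask culture, induced with 0.3% L-arabinose, DNA abundance read by NGS, three biological replicates, DESeq2 with apeglm shrinkage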
This listing pairs sequences with measured shrunken log2 fold change.
REPORTED METRIC: shrunken log2 fold change

BIOSEQUENCE	TARGET OR TEST SYSTEM	ASSAY RESULT
RRIRYRPPRLPRPRPRPQQQPRP	Escherichia coli TOP10	0.00548
RRIRQRPPRLPRPRPRPRGPPRP	Escherichia coli TOP10	0.0418
RRIRCRPPRLPRPRPRPKRDPRP	Escherichia coli TOP10	5.21
RRIRHRPPRLPRPRPRPWPHPRP	Escherichia coli TOP10	-0.0305
RRIRMRPPRLPRPRPRPPLGPRP	Escherichia coli TOP10	1.08
RRIRARPPRLPRPRPRPWPTPRP	Escherichia coli TOP10	0.703
RRIRWRPPRLPRPRPRPEKAPRP	Escherichia coli TOP10	-0.0225
RRIRCRPPRLPRPRPRPPIGPRP	Escherichia coli TOP10	-0.079
RRIRNRPPRLPRPRPRPTWHPRP	Escherichia coli TOP10	0.0157
RRIRHRPPRLPRPRPRPAGEPRP	Escherichia coli TOP10	-0.0717
RRIRTRPPRLPRPRPRPQVWPRP	Escherichia coli TOP10	0.112
RRIRTRPPRLPRPRPRPWHDPRP	Escherichia coli TOP10	-0.0708
RRIRIRPPRLPRPRPRPFDGPRP	Escherichia coli TOP10	-0.262
RRIRIRPPRLPRPRPRPDTCPRP	Escherichia coli TOP10	0.0578
RRIRCRPPRLPRPRPRPDAWPRP	Escherichia coli TOP10	0.141
RRIRHRPPRLPRPRPRPVFAPRP	Escherichia coli TOP10	0.12
RRIRCRPPRLPRPRPRPPGNPRP	Escherichia coli TOP10	0.0392
RRIRYRPPRLPRPRPRPGDQPRP	Escherichia coli TOP10	0.0121
RRIRNRPPRLPRPRPRPSATPRP	Escherichia coli TOP10	-0.0839
RRIRERPPRLPRPRPRPSYIPRP	Escherichia coli TOP10	-0.216
RRIRNRPPRLPRPRPRPQTIPRP	Escherichia coli TOP10	-0.194
RRIRDRPPRLPRPRPRPSTKPRP	Escherichia coli TOP10	0.116
RRIRDRPPRLPRPRPRPEKSPRP	Escherichia coli TOP10	-0.00264
RRIRIRPPRLPRPRPRPDHVPRP	Escherichia coli TOP10	-0.23
RRIRSRPPRLPRPRPRPKWEPRP	Escherichia coli TOP10	0.274
RRIRHRPPRLPRPRPRPNSSPRP	Escherichia coli TOP10	-0.203
RRIRFRPPRLPRPRPRPFPFPRP	Escherichia coli TOP10	-0.177
RRIRARPPRLPRPRPRPLYLPRP	Escherichia coli TOP10	-0.367
RRIRGRPPRLPRPRPRPVHDPRP	Escherichia coli TOP10	-0.0619
RRIRQRPPRLPRPRPRPCASPRP	Escherichia coli TOP10	-0.0156
RRIRWRPPRLPRPRPRPLKWPRP	Escherichia coli TOP10	0.488
RRIRFRPPRLPRPRPRPCTIPRP	Escherichia coli TOP10	-0.15
